- TEST_TARGET: BACE1 (Homo sapiens, UniProt P56817)
- Sequence (P56817 46-501, species assumed): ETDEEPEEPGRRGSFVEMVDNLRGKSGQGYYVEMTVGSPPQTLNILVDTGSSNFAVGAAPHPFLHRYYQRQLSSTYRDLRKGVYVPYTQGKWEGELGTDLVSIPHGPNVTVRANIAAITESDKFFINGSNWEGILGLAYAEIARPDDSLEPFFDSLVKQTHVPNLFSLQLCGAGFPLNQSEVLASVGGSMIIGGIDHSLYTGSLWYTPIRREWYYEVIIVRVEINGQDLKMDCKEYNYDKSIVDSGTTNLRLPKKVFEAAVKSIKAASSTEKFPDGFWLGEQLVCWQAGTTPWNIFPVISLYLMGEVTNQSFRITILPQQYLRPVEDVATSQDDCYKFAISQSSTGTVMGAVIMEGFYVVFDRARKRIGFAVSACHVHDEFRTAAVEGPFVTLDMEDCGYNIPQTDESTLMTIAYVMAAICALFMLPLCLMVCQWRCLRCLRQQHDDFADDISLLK
- ASSAY_SUMMARY: In Vitro Enzymatic BACE FRET (Fluorescence Resonance Energy Transfer) Assay
- Type: biochemical
- APPLIED_CONDITIONS: read-out: BACE1 FRET assay
# IC50 listing for each entry below

Consider the reported IC50 for these compounds:
- SMILES_TEXT: "N#Cc1ccc(-n2ccc3c(c2=O)[C@@]2(COC(N)=N2)c2cc(-c4cccnc4)ccc2O3)cc1"
  ENDPOINT_NAME: "IC50"
  RESULT: "1000 to 5000 nM"
- SMILES_TEXT: "CC(C)(C)C#Cc1ccc2c(n1)[C@]1(COC(N)=N1)c1cc(-c3cncnc3)ccc1O2"
  ENDPOINT_NAME: "IC50"
  RESULT: "100 to 1000 nM"
- SMILES_TEXT: "CN1CCN(c2cc3c(cn2)Oc2ccc(-c4cccnc4)cc2[C@@]32COC(N)=N2)CC1"
  ENDPOINT_NAME: "IC50"
  RESULT: "< 100 nM"

Would you kindly look at the next entry?
Returns the measured IC50 for the input compound. Input: NC1=N[C@@]2(CO1)c1cc(-c3cccnc3)ccc1Oc1ccc(Cl)nc12 1000 to 5000 nM

Values were extracted from patent US8426447B2.
